Data origin: ChEMBL document CHEMBL3885881

# Organism: Rattus norvegicus
# protocol details: DrugMatrix - Regimen: Daily Repeat
# Type: toxicity, organism-based, Sprague-Dawley
# Design: regimen Daily Repeat, gender Male, age 6-8 weeks
# conditions: in vivo, po, 0 mg/kg, 72 h, tissue Blood, route oral GAVAGE, dose level Control, time 3 day, […]
endpoint name: PLATELET COUNT (x10E3/uL)
Your answer is read as x10E3/uL, so omit the unit and give the number.

- compound: "CC(C)(C)NC(=O)[C@H]1CC[C@H]2[C@@H]3CC[C@H]4NC(=O)C=C[C@]4(C)[C@H]3CC[C@]12C [FINASTERIDE]"
  PLATELET COUNT, x10E3/uL: 896

[ask] Give the measured PLATELET COUNT for CO[C@H]1/C=C/O[C@@]2(C)Oc3c(C)c(O)c4c(O)c(c(/C=N/N5CCN(C6CCCC6)CC5)c(O)c4c3C2=O)NC(=O)/C(C)=C\C=C\[C@H](C)[C@H](O)[C@@H](C)[C@@H](O)[C@@H](C)[C@H](OC(C)=O)[C@@H]1C
[reply] 1292

[ask] Give the measured PLATELET COUNT for Clc1ccc(COC(Cn2ccnc2)c2ccc(Cl)cc2Cl)cc1 (centres undefined)
[reply] 1151

[ask] Give the measured PLATELET COUNT for COc1cc(N)c(Cl)cc1C(=O)NC1CCN(CCCOc2ccc(F)cc2)CC1OC (centres undefined) [CISAPRIDE]
[reply] 414.5

###

# Species: Rattus norvegicus
# protocol details: DrugMatrix - Regimen: Daily Repeat
# Assay type: toxicity, organism-based, Sprague-Dawley
# Parameters: regimen Daily Repeat, gender Male, age 6-8 weeks
# conditions: in vivo, po, 1500 mg/kg, 72 h, tissue Plasma, route oral GAVAGE, dose level High, time 3 day, vehicle .5 % CMC
Listed next: entries and their corresponding SODIUM.
Your answer is read as MEQ/L, so omit the unit and give the number.

- compound: "CC(C)Oc1ccc2c(=O)c(-c3ccccc3)coc2c1 [IPRIFLAVONE]"
  SODIUM [MEQ/L]: 143.17

[ask] Give the measured SODIUM for COC(=O)Nc1nc2ccc([S+]([O-])c3ccccc3)cc2[nH]1 (stereo not given) [OXFENDAZOLE]
[reply] 142.17

[ask] Give the measured SODIUM for O=c1cnn([C@@H]2O[C@H](CO)[C@@H](O)[C@H]2O)c(=O)[nH]1 [6-AZAURIDINE]
[reply] 147.5

[ask] Give the measured SODIUM for CN(C)[C@@H]1C(O)=C(C(N)=O)C(=O)[C@@]2(O)C(O)=C3C(=O)c4c(O)ccc(Cl)c4[C@@](C)(O)[C@H]3C[C@@H]12 [CHLORTETRACYCLINE]
[reply] 148.37

[ask] Give the measured SODIUM for CC(C)=CCC/C(C)=C/CO [GERANIOL]
[reply] 143.87

###

# Species on record: Rattus norvegicus
# protocol details: DrugMatrix - Regimen: Daily Repeat
# Assay type: toxicity, organism-based, Sprague-Dawley
# Set-up: regimen Daily Repeat, gender Male, age 6-8 weeks
# conditions: in vivo, po, 1500 mg/kg, 72 h, tissue Blood, route oral GAVAGE, dose level High, time 3 day, vehicle .5 % CMC
endpoint name: MEAN CORPUSCULAR HEMOGLOBIN (pg)
Your answer is read as pg, so omit the unit and give the number.

Worked examples follow.
- compound: "COC(=O)Nc1nc2ccc([S+]([O-])c3ccccc3)cc2[nH]1 (stereo not given)"
  unit string: "pg"
  readout value: 23.07
- compound: "CC(C)Oc1ccc2c(=O)c(-c3ccccc3)coc2c1"
  unit string: "pg"
  readout value: 24.47
- compound: "CN(C)[C@@H]1C(O)=C(C(N)=O)C(=O)[C@@]2(O)C(O)=C3C(=O)c4c(O)ccc(Cl)c4[C@@](C)(O)[C@H]3C[C@@H]12"
  unit string: "pg"
  readout value: 25.13
- compound: "CC(C)=CCC/C(C)=C/CO"
  unit string: "pg"
  readout value: 25.2

[ask] Give the measured MEAN CORPUSCULAR HEMOGLOBIN for O=c1cnn([C@@H]2O[C@H](CO)[C@@H](O)[C@H]2O)c(=O)[nH]1
[reply] 22.9
